biological target: T1, cynomolgus TIM-3 on isolated cyno CD14+ monocytes (cynomolgus); assay: flow cytometry, cyno CD14+ monocytes cyno1
T1 construct: whole, on cells
Listed below: MFI values for each entry.

| BINDER | MFI |
| --- | --- |
| Tim3_0028 (antibody, V domains shown) VH: EVQLQQSVAELVRPGASVKLSCTASGFNIKTTYMHWVKQRPEQGLEWIGRIDPADDNTKYAPKFQGKATITADTSSNTAYLQLSSLTSEDAAIYYCVRDFGYVAWFAYWGQGTLVTFSA VL: NIVMTPTPKFLPVSSGDRVTMTCRASQSVDNYVAWYQQKPGQSPKLLIYYASNRYIGVPDRFTGSGSGTDFTFTISSVQVEDLAVYFCQQHYSSPYTFGSGTKLEIK | 3940 MFI |
| Tim3_0022 (antibody, V domains shown) VH: EVQLQESGPSLVKPSQTLSLTCSVTGDSIASAYWNWIRKFPGNKLEYMGYINYSGSTYYNPSLKSRISITRDTSQNQYYLQLNSVTTEDTATYYCVTGDYFDYWGRGTTLTVSS VL: DIQMTQSPSSLSAYLGGKVTITCKARQDVRKNIGWYQHKPGKGPRLLIWYTSTLQSGIPSRFSGSGSGRDYSFNINNLEPEDIATYYCLQYDNLPFTFGTGTKLEIR | 115 MFI |
| Tim3_0016 (antibody, V domains shown, also called clone 0016) VH: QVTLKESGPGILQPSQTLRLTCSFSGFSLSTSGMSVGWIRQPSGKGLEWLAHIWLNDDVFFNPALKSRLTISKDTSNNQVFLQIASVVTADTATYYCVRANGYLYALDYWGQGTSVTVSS VL: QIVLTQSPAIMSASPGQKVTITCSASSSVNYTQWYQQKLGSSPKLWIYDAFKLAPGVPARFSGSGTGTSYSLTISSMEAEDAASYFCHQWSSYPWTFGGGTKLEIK | 157 MFI |

Origin of the recorded values: patent US20210087291A1
